Please provide measured inhibition for the entries that follow.
assay: PhoP regulon inhibitors, Salmonella typhi PhoP promoter GFP reporter, confirmatory (AID 1850); conditions: fluorescence, 4 h, at 50 µM, hits give high values;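 note: 0% = induced wells with vehicle and 100% = uninduced wells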
Out of some 310,000 compounds screened, about 1,000 (0.32%) were called active. A selection follows. Results with a measured potency or affinity are listed apart.
Record the value in %, omitting the unit from your answer.

Fill in: inhibition of Cc1cc(=O)c(C(=O)O)nn1-c1cccc(C(F)(F)F)c1 is ___
3.22

Could you share which inhibition value was measured for Cc1ccc(SCC(=O)NCCSC(C)(C)C)cc1 ?
-5.44

Query: inhibition; subject: CC(NCc1ccc(Cl)cc1)C(O)c1ccccc1 (configuration not stated)
32.7

Given the compound O=C(O)/C=C/C(=O)N1CCN(c2ccc(F)cc2)CC1 , what is its reported inhibition?
2.57

Any idea what its inhibition is? The compound is Cc1cc(C)c(S(=O)(=O)NCCCn2ccnc2)c(C)c1
-3.5

# input compound: Cc1cccc(C(=O)NC(=S)NNC(=O)c2cccs2)c1 ; wanted: its inhibition
-3.39

Which inhibition value is on record for Cc1cccc(C(=O)NNC(=S)NC(=O)c2ccccc2)c1 ?
18.6

Which value of inhibition has been reported for CCOc1ccc(CCNC(=O)C2CCCN(c3ncnc4c3nc3n4CCCCC3)C2)cc1 (configuration not stated) in the records?
3.25

Requested field: inhibition. Item: CC(NCc1ccc(Cl)cc1Cl)C(O)c1ccccc1 (configuration not stated)
-10

Param item = CSc1ccc(CNC(C)C(O)c2ccccc2)cc1 (configuration not stated) ; retrieve measured inhibition.
20.7

What value of inhibition has been recorded for this entry: CCOC(=O)N1CCN(Cc2ccccc2Cl)CC1
-4.15

# inhibition lookup, item CC(NCc1ccccc1Cl)C(O)c1ccccc1 (configuration not stated)
3.04

###

assay: PhoP regulon inhibitors, Salmonella typhi PhoP promoter GFP reporter, confirmatory (AID 1850); details: fluorescence, 4 h, at 50 µM, hits give high values;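 note: 0% = induced wells with vehicle and 100% = uninduced wells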
About 1,000 (0.32%) of roughly 310,000 compounds were called active. A selection follows. Entries with a potency or affinity are not part of this list.
measuredProperty: inhibition

Looking for the measured inhibition of CCOC(=O)C1CCCN(C(=O)c2ccc3nc(-c4ccccc4)c(-c4ccccc4)nc3c2)C1 (stereo unspecified) , can you help?
5.36% (inactive)

Which inhibition is listed for CC(C)(C)c1ccc(OCCON2C(=O)CCC2=O)c(Cl)c1 ?
10.3% (inactive)

State the recorded inhibition for this entry: CC(=O)N1CCN(S(=O)(=O)c2cccc(C(=O)Nc3ccccc3N3CCCC3)c2)CC1
-2.62% (inactive)

Value lookup for inhibition; key = Cc1cc(C)c(OCCNCc2ccccc2)c(C)c1
-8.25% (inactive)

What value of measured inhibition is listed for Cc1cc(Cl)cc(C)c1OCCNCc1ccccc1 ?
-3.01% (inactive)

Looking for the measured inhibition of O=C(Nc1cc(Br)c(O)c(Br)c1)c1cccc(NC(=O)c2ccco2)c1 , can you help?
-5.68% (inactive)

// lookup inhibition for CCN1CCSc2ccc(C(=O)NCc3ccc(OC(C)C)cc3)cc21
-2.46% (inactive)

Give its inhibition value. Item: O=[N+]([O-])C(=C1Nc2ccccc2N1)/C(Cl)=C(/Cl)Br
-3.57% (inactive)

Give the measured inhibition of O=C(Nc1ccccc1)c1ccc(=O)n(Cc2ccc(F)c(F)c2)c1 .
-6.26% (inactive)

Quick one: inhibition for CC(=O)c1cc(F)ccc1OCC(=O)N1CCCc2ccccc21 ?
5.07% (inactive)

// inhibition lookup, key: CNCCCOc1ccc(Cl)cc1C(C)(C)C
18.7% (inactive)

###

experiment: PhoP regulon inhibitors, Salmonella typhi PhoP promoter GFP reporter, confirmatory (AID 1850); settings: fluorescence, 4 h, at 50 µM, hits give high values;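 note: 0% = induced wells with vehicle and 100% = uninduced wells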
Hit rate of the full screen: of about 310,000 compounds, about 1,000 (0.32%) were called active. Only a sample is shown. Measured potencies and affinities stand elsewhere.
Would you mind telling me the reported inhibition of each entry?
Lab book: enter the figure in %, no units written.

Value lookup for inhibition; key = N=c1c2c(n(Cc3ccc(F)cc3)c3c1CCC3)CCC2
-1.84

Any idea what its inhibition is? The compound is CCOC(=O)N1CCN(Cc2ccc(O)c3ncccc23)CC1
1.82

Entry CCCn1nnc(NC(=O)c2ccc([N+](=O)[O-])cc2Cl)n1 has what inhibition?
-8.6

Tell me the measured inhibition of N=c1c2c(n(Cc3ccccc3)c3c1CCC3)CCC2 , please.
-2.77

I am curious: what inhibition value has been reported for CCOc1cc(NC(=O)C2CC2)c(OCC)cc1NC(=O)CCn1nnc2ccccc21 ?
0.44

GET /values?readout=inhibition&item= COc1cc(C(=O)NCC(=O)OCC(=O)Nc2nnc(-c3ccccc3)o2)cc(OC)c1OC
1.32

// inhibition lookup, key: O=C(Cn1nc(C(F)F)cc1C(F)F)NNC(=S)Nc1ccc(Cl)cc1
8.04

Would you mind telling me what inhibition value was observed for O=[N+]([O-])c1ccc(O)c(/C=N/n2cnnc2)c1 ?
16.7

I'd like to know its inhibition. The compound in question is O=C(Nc1ccc2c(c1)CCC2)c1ccc(Cl)nc1
8.38

For Cc1cc(C)n(/N=C/c2cccc([N+](=O)[O-])c2)c(=O)c1 , what is its reported inhibition?
-0.547

I have this compound here, CC12CN3CCN(CC(C3)/C1=N/NC(=O)Nc1ccccc1)C2 , and I need its recorded inhibition.
3.04

Name the reported inhibition value associated with the compound Cc1nc2cc(C(F)(F)F)ccc2n1C
1.93

I'd like to know its inhibition. The compound in question is CS(=O)(=O)N(CCc1ccccc1)CC(=O)N1CCN(c2ccccc2)CC1
-4.94

Which value of inhibition has been reported for CCOC(=O)c1ccc(CNC(=O)c2n[nH]c(=O)c3ccccc23)o1 in the records?
-3.19

What measured inhibition goes with Cc1ccc(Nc2nc(N)nc(CSC(=S)N3CCN(c4ccccc4)CC3)n2)cc1 ?
5.34

# inhibition lookup, item CCn1c2c(c(=N)c3c1CCC3)CCCC2
8.7

Dear colleague, I am looking for the recorded inhibition of the following compound: O=C(COC(=O)c1ccc(Br)o1)NCCNC(=O)COC(=O)c1ccc(Br)o1
-1.54

Field request: inhibition | item: Clc1cccc(CN2CCCCCC2)c1
-6.25

Tell me the measured inhibition of COCc1cc(CN2CCN(C)CC2)c(O)c2ncccc12 , please.
4.48

So what does the record say about inhibition for CCc1ccccc1NNC(=O)c1cc(C)on1 ?
-26.6

Return reported inhibition; argument: CC1CCCCC12NC(=O)N(CC(=O)NCc1ccc3c(c1)OCO3)C2=O (centres undefined)
5.06

Find the recorded inhibition belonging to COc1ccccc1OCc1nc2ccccc2n1C and report it.
-1.73

Look at this compound and give its reported inhibition. O=c1c(CN2CCN(c3ccccn3)CC2)coc2ccccc12
-1.82

What does the data say about its inhibition? Entry: O=C(Cn1nc(C(F)F)cc1C(F)F)NNC(=S)Nc1ccc(F)cc1
-9.87

###

Give measured inhibition for each item. Keep answers brief.
test: PhoP regulon inhibitors, Salmonella typhi PhoP promoter GFP reporter, confirmatory (AID 1850); settings: fluorescence, 4 h, at 50 µM, hits give high values;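 note: 0% = induced wells with vehicle and 100% = uninduced wells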
The whole screen tested about 310,000 compounds, of which about 1,000 (0.32%) were called active. The list is a sample of the results. Measured potencies and affinities stand elsewhere.
Entry rule: numbers only, all in %.

Item under review: Cc1ccc2c(c1)c1c3n2CCN(C(=O)CCl)C3CCC1 (centres undefined) . Reported inhibition?
7.2

Which value of inhibition has been reported for CCOC(=O)c1ccc(CNCc2ccc(C)cc2)cc1 in the records?
-2.32

For the compound Oc1ccc2ccccc2c1/C=N/Nc1ccccc1 , what inhibition is on record?
-3.44

Tell me the measured inhibition of O=C(Nc1nnc(Cc2ccccc2F)s1)c1ccccc1Cl , please.
-2.4

Bench note: what inhibition did Cc1ccc2c(c1)c1c3n2CCN(C(=O)CN2CCN(C)CC2)C3CCC1 (centres undefined) show?
4.43

Give its inhibition value. Item: CCN(CC)CCCNC(=O)Cn1cnc2ccc(S(=O)(=O)N3CCC(C)CC3)cc2c1=O
5.63

inhibition for CCOC(=O)c1ccc(CNCc2ccccc2)cc1 ?
-2.61

Item under review: O=S(=O)(Nc1ccc(-n2cnnn2)cc1)c1ccc(F)c(F)c1F . Reported inhibition?
-6.29

Name the recorded inhibition for Oc1ccc2c(c1)c1c3n2CCNC3CCC1 (centres undefined) .
-4.83

Fill in the blank: the reported inhibition of Cc1ccccc1CSCC(Nc1ccc(C(=O)O)cc1[N+](=O)[O-])C(=O)O (centres undefined) is ____.
-0.8

Entry Cc1ccccc1/C=N/Nc1nc2ccccc2c(=O)n1O has what inhibition?
-20.3

Suppose we examine the compound CC(=O)c1coc2c1cc(O)c1ccccc12 ; what inhibition value has been reported?
-10.2

Item under review: O=C1C(Cl)=C(NCCN2CCCCC2)C(=O)c2ccccc21 . Reported inhibition?
-2.93

# lookup: inhibition of Cc1ccc2c(c1)c1c3n2CCCNC3CCC1 (centres undefined)
5.15

If you can, please state the reported inhibition value of CN(C)c1cnn(-c2ccccc2)c(=O)c1Cl .
-7.8

I'd like to know its inhibition. The compound in question is O=c1c2ccccc2nc(N/N=C/c2ccc(O)cc2)n1O
10.2

Report inhibition for O=C(CN1c2ccccc2S(=O)(=O)c2ccccc21)Nc1ccccc1F please.
2.92

Query (compound): C=CCN(C(=O)c1csnn1)C(C(=O)NCc1ccccc1)c1c(F)cccc1Cl (centres undefined) ; field requested: inhibition
-1.14

Report inhibition for CCCNC(=O)c1oc2ccc3c(c2c1C)C=CC(C)(C)O3 please.
-5.94

Can you look up the measured inhibition of Cc1cccc(C(=O)NCC(=O)N2CCN(c3ccc(Cl)cc3)CC2)c1 for me?
4.53

Any idea what its inhibition is? The compound is Cc1ccc(C(=O)NCC(C)NC(=O)c2ccc(C)c([N+](=O)[O-])c2)cc1[N+](=O)[O-] (centres undefined)
-3.75

Return reported inhibition; argument: Cc1ccc2c(c1)c1c3n2CCN=C3CCC1
0.52

Param item = Cn1c(=O)c2c(nc(NCC3CCCO3)n2Cc2cccc(Br)c2)n(C)c1=O (centres undefined) ; retrieve measured inhibition.
2.34

Recorded inhibition of CC1Oc2ccccc2N(CC(=O)Nc2ccccc2F)C1=O (centres undefined) , please.
-6.46
